Assay: Pharmacokinetics in Sprague Dawley rats (plasma and brain concentrations, PK parameters)
Type: in vivo
Conditions: Sprague-Dawley, rat, plasma, iv, 3 mg/kg, Sprague Dawley rat, iv 3 mg/kg, plasma, 2 h, mean of 3 rats; read-out: Concentration Mean
Experimental: Pharmacokinetics for I-127, I-172 and I-210 were determined in Sprague Dawley rats or CD-1 mice by dosing intravenous (IV), subcutaneous (SC) or per oral (PO) using facility SOPs and sampling plasma at required time points. […] Compounds were extracted from plasma, injected on reverse phase HPLC, eluted with a gradient from 5% to 95% acetonitrile in water and quantified by mass spectrometry with internal standard. […]
RECORDED METRIC: concentration at 2 h (ng/mL)
One number for each entry, in ng/mL.

So what's the measured concentration at 2 h for this one? O=C1CCC(N2C(=O)c3cccc(NCCOCCOCCNCc4ccc(-n5cc(NC(=O)c6coc(-c7ccnc(NCC8CC8)c7)n6)c(C(F)F)n5)cc4)c3C2=O)C(=O)N1 (stereo not shown) [I-210]
144
